Hello, the source for this data is patent US20220259593A1, in case you need it.

Tested on: K562 CRISPRi cells
METHOD SUMMARY: Constant region variant library pooled growth screen, K562
Format: cell-based, human
STUDY CONDITIONS: sgRNA constant region variant; activity relative to unmodified constant region cr995; mean CRISPRi activity
MEASUREMENT KIND: Mean relative activity

Exam item: Could you share which Mean relative activity value was measured for cr778 (nucleic acid, listed as DNA, chemistry not fully specified) guide: GTTTAAGAGCTAAGCTGGAAACAGCATAGCAAGTTTAAATAAGGCTAGTCGGTTATCAACTTGAAAAAGTGGCACCGAGTCGGTGCT ?
Marked response: 0.0072

Note: attention shifts to another entry.
Exam item: Could you share which Mean relative activity value was measured for cr463 (nucleic acid, listed as DNA, chemistry not fully specified) guide: GTTTAAGAGCTAAGCTGGAAACAGCATAGCAAGTTTAAATAACGCTAGTCGGTTATCACCTTGAAAAAGGGGCACCTAGTAGGTGCT ?
Marked response: 0.006799
